- PROTOCOL_TEXT: soluble on expression in E. coli; label from the status in PepcDB or PDB records
ASSAY_ENDPOINT: soluble on expression in E. coli

In the examples that follow, each entry is paired with its recorded soluble on expression in E. coli.
{"SEQUENCE_CODE": "SLNEQELQDLQKMVGVAVNALGDIKAKDISVLETQDKTSLFARMIIASGDSTRQVKALANNVAVDLKEAGFEILSTEGDSGEWTLVDAGDLVVHVMLPAVRDFYDIDTLWGGEKPSFHAGMQKPWHAAD", "soluble on expression in E. coli": "soluble"}
{"SEQUENCE_CODE": "MGSSHHHHHHSSGLVPRGSHGLVPRGSHMKKLKLHGFNNLTKSLSFCIYDICYAKTAEERDGYIAYIDELYNANRLTEILSETCSIIGANILNIARQDYEPQGASVTILVSEEPVDPKLIDKTEHPGPLPETVVAHLDKSHICVHTYPESHPEGGLCTFRADIEVSTCGVISPLKALNYLIHQLESDIVTIDYRVRGFTRDINGMKHFIDHEINSIQNFMSDDMKALYDMVDVNVYQENIFHTKMLLKEFDLKHYMFHTKPEDLTDSERQEITAALWKEMREIYYGRNMPAV", "soluble on expression in E. coli": "soluble"}
{"SEQUENCE_CODE": "MEFRRKCSRSAMRHKSQKRRAMPNQDVEKVNEIFKFPRISEQALMDGILKISCIASFKNGNQRCFEGSIYVKELCGLRNGTKVFKFIELANIRLYSIDEEDEIPEYDWIISV", "soluble on expression in E. coli": "not soluble"}
{"SEQUENCE_CODE": "LNKWMKELSKTTSLDPVKPVDVLLTENDITIKNIRDMNRLRPFGTDFSRPIFEMDDLSVSSVKAIGQQKNHLKLTLGESNIAALFWQNGHLEPELQDEQPINILGSVQINEWNGNQSPQ", "soluble on expression in E. coli": "not soluble"}
{"SEQUENCE_CODE": "MKKEHLKFVIDSRCFRGSCVTSMSDGIHCDYYGSTLEELKKQENNPFLVAVTRNAIHKRSRIHDKSLCRPFREITEENYYNCMNELPPVRLKHHSFFFGEPYHGSLYMFCFTIGKRFFRGLRPVMTPQAELERQMNEHYHNITFKGKVTKGKAERITSKDKQEIITIPYSFTDKENRERFICNMVTGGNDGGDTCKARKDMTNILLSLRKHHFLYFSGYGRHDDMETLLDEVEEKRYTIITSGCLFQFPPCRDSVSFTGSVKETGENFFYRIYDRELFLHIMHRLRAVKREKTPAEAKAVLPKCKCYE", "soluble on expression in E. coli": "not soluble"}
{"SEQUENCE_CODE": "MNRLPVDDVIPDLLTALEQRNAAVLQAPPGAGKTTRVPLALLDAPWLNGKRIIMLEPRRLAATNAARWMARSLGEEAGATVGYAIRFDRRVSARTRVEVVTEGILTRRLQSDPLLEGVGAVIFDEFHERSIHSDLALALCRDVQAGLREDLRIIVMSA", "soluble on expression in E. coli": "not soluble"}

Proceeding to the next sequence to report its soluble on expression in E. coli.
Input line: Please list soluble on expression in E. coli recorded for the sequence MSNRVPTNILTGFLGVGKTTTILNLLKNKPENENWAVLVNEFGEIGIDGALMTDQGALIKEVPGGCMCCTAGVPMSVGITALLRQKPDRLLIEPTGLGHPKQVIATLTSEQYLPYVDLKATIALVDPRNLSDEKYTSNQNFVDQLDSADVVIGSKVDLCSSHDIDVFNDWVTDQTPAKVFSKLIHNGELPIEVLDIERVHGSASSHIETHHHEHAHQEPQFQLPPGEAFIRKENKGQGYFSCGWLFGAEYKFDFDKLFSMLSDLTAERVKAVVNTNQGCYAFNVANRVVSVNEISLEGFESRLEVIDSQLLPWDELEQILLQLAGVEGLEHHHHHH
Output line: soluble

Ref: the DeepSol protein solubility set
